measurement description: TOX21_p53_BLA_p5_viability: Viability Assessment in the Tox21 HCT-116 p53 Agonism Beta-lactamase Assay, Phase 5 (AID 2283600)
Results filed as inconclusive are left out. The source made the active and inactive calls. How the source made its calls: active means hit-call score of the fitted dose curve at least 0.9, where 1 is the maximum; inconclusive means response in the unintended direction; inactive means score below 0.9.
Log the outcome using a class from Y (active), N (inactive)

q: Can you look up the reported call for CCCCC(C#N)(Cn1cncn1)c1ccc(Cl)cc1 (configuration not stated) for me?
a: N

q: Can you look up the reported call for O=C(Nc1ccccc1-c1ccc(Cl)cc1)c1cccnc1Cl for me?
a: N

q: Can you look up the reported call for CSC(=O)c1c(C(F)F)nc(C(F)(F)F)c(C(=O)SC)c1CC(C)C for me?
a: N

q: Can you look up the reported call for Cc1cc(C)nc(Nc2ccccc2)n1 for me?
a: N

q: Can you look up the reported call for CCOc1nc(C(Cl)(Cl)Cl)ns1 for me?
a: N

q: Can you look up the reported call for CCOC(=O)C(C)OC(=O)c1cc(Oc2ccc(C(F)(F)F)cc2Cl)ccc1[N+](=O)[O-] (configuration not stated) for me?
a: N

q: Can you look up the reported call for CCCCOCN(C(=O)CCl)c1c(CC)cccc1CC for me?
a: N

q: Can you look up the reported call for CCC(C)n1c(=O)[nH]c(C)c(Br)c1=O (configuration not stated) for me?
a: N

q: Can you look up the reported call for CCOP(=O)(OCC)Oc1nc(Cl)c(Cl)cc1Cl for me?
a: N

q: Can you look up the reported call for CO/N=C(/C1=NOCCO1)c1ccccc1Oc1ncnc(Oc2ccccc2Cl)c1F for me?
a: N

q: Can you look up the reported call for CNC(=O)Oc1cccc2ccccc12 for me?
a: N

q: Can you look up the reported call for CC(C)N1C(=O)N(c2ccccc2)CSC1=NC(C)(C)C for me?
a: Y
